The following compounds are shown together with reported pIC50 values.
Tested on: Plasmodium falciparum
Assay: Antimalarial activity against chloroquine-resistant Plasmodium falciparum W2 infected in RBC incubated for 50 hrs by SYBR green I staining based microplate reader assay
Type: functional, organism-based
Settings: W2, Erythrocyte
When answering, recall that pIC50 equals minus log10 of the concentration in mol/L, and write that number alone.

Example entries and their recorded answers appear below.
Quick one: pIC50 of Oc1ccccc1C(c1ccc(F)c(Cl)c1)N1CCN(c2ccnc3cc(Cl)ccc23)CC1 (stereo not drawn) ?
6.34

// query: Cc1ccc(C(c2ccccc2O)N2CCN(c3ccnc4cc(Cl)ccc34)CC2)cc1 (stereo not drawn)
5.89

// query: COc1cccc(C(c2ccc(Cl)c(Cl)c2)N2CCN(c3ccnc4cc(Cl)ccc34)CC2)c1O (stereo not drawn)
6.18

// query: COc1cccc(C(c2ccc(C(F)(F)F)cc2)N2CCN(c3ccnc4cc(Cl)ccc34)CC2)c1O (stereo not drawn)
5.48

// query: Oc1ccccc1C(c1ccc(OC(F)(F)F)cc1)N1CCN(c2ccnc3cc(Cl)ccc23)CC1 (stereo not drawn)
5.91

// query: COc1ccc(C(c2cccc(OC)c2O)N2CCN(c3ccnc4cc(Cl)ccc34)CC2)cc1 (stereo not drawn)
5.59

Next:
Quick one: pIC50 of Oc1ccccc1C(c1ccc(F)c(F)c1)N1CCN(c2ccnc3cc(Cl)ccc23)CC1 (stereo not drawn) ?
5.98

// query: COc1cccc(C(c2ccc(F)c(F)c2)N2CCN(c3ccnc4cc(Cl)ccc34)CC2)c1O (stereo not drawn)
5.85

* * *

Test system Falcipain-3 (Plasmodium falciparum 3D7, UniProt Q8IIL0), pIC50 listed for each of the compounds.
When answering, recall that pIC50 equals minus log10 of the concentration in mol/L, and write that number alone.

Quick one: pIC50 of Oc1ccccc1C(c1ccc(F)c(Cl)c1)N1CCN(c2ccnc3cc(Cl)ccc23)CC1 (stereo not drawn) ?
5.00

Next:
Quick one: pIC50 of Cc1ccc(C(c2ccccc2O)N2CCN(c3ccnc4cc(Cl)ccc34)CC2)cc1 (stereo not drawn) ?
5.17

// query: COc1cccc(C(c2ccc(C(F)(F)F)cc2)N2CCN(c3ccnc4cc(Cl)ccc34)CC2)c1O (stereo not drawn)
5.21

// query: COc1cccc(C(c2ccc(Cl)c(Cl)c2)N2CCN(c3ccnc4cc(Cl)ccc34)CC2)c1O (stereo not drawn)
5.23

// query: COc1cccc(C(c2ccc(F)c(F)c2)N2CCN(c3ccnc4cc(Cl)ccc34)CC2)c1O (stereo not drawn)
4.97

// query: COc1ccc(C(c2cccc(OC)c2O)N2CCN(c3ccnc4cc(Cl)ccc34)CC2)cc1 (stereo not drawn)
5.11

// query: Oc1ccccc1C(c1ccc(OC(F)(F)F)cc1)N1CCN(c2ccnc3cc(Cl)ccc23)CC1 (stereo not drawn)
5.33

// query: Oc1ccccc1C(c1ccc(F)c(F)c1)N1CCN(c2ccnc3cc(Cl)ccc23)CC1 (stereo not drawn)
5.31

* * *

Target protein (sequence): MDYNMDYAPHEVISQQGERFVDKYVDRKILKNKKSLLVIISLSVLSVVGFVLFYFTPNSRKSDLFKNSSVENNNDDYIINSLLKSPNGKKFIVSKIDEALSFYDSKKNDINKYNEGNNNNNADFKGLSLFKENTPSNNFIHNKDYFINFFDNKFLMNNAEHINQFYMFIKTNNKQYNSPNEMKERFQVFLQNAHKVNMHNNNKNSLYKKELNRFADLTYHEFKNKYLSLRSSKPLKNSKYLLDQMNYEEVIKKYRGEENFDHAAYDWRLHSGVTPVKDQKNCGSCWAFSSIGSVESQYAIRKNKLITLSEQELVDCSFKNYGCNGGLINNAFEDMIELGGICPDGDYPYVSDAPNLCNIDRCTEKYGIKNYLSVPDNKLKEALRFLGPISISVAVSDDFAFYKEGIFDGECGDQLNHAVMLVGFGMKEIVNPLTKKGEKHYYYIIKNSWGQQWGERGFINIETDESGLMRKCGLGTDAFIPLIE
The following compounds are shown together with reported pIC50 values.
When answering, recall that pIC50 equals minus log10 of the concentration in mol/L, and write that number alone.

Example entries and their recorded answers appear below.
Quick one: pIC50 of Oc1ccccc1C(c1ccc(OC(F)(F)F)cc1)N1CCN(c2ccnc3cc(Cl)ccc23)CC1 (stereo not drawn) ?
5.32

// query: Oc1ccccc1C(c1ccc(F)c(Cl)c1)N1CCN(c2ccnc3cc(Cl)ccc23)CC1 (stereo not drawn)
5.06

// query: Cc1ccc(C(c2ccccc2O)N2CCN(c3ccnc4cc(Cl)ccc34)CC2)cc1 (stereo not drawn)
5.21

Next:
Quick one: pIC50 of COc1ccc(C(c2cccc(OC)c2O)N2CCN(c3ccnc4cc(Cl)ccc34)CC2)cc1 (stereo not drawn) ?
5.15

// query: Oc1ccccc1C(c1ccc(F)c(F)c1)N1CCN(c2ccnc3cc(Cl)ccc23)CC1 (stereo not drawn)
5.41

// query: COc1cccc(C(c2ccc(Cl)c(Cl)c2)N2CCN(c3ccnc4cc(Cl)ccc34)CC2)c1O (stereo not drawn)
5.34

// query: COc1cccc(C(c2ccc(F)c(F)c2)N2CCN(c3ccnc4cc(Cl)ccc34)CC2)c1O (stereo not drawn)
4.98

// query: COc1cccc(C(c2ccc(C(F)(F)F)cc2)N2CCN(c3ccnc4cc(Cl)ccc34)CC2)c1O (stereo not drawn)
5.27
